Measured activity at 0.1 µM, listed per entry for reference.
Test system: cardiac cells
method description: Oxidative necrosis of cardiac cells induced by hypoxanthine/xanthine-oxidase (XO + HX)
Format: cell-based, rat (newborn)
condition label: Rattus norvegicus, 4 h; 10^-7 M; XO + HX; control XO + HX = 100.0; read-out: necrosis index of cardiac cells, XO + HX, compound 10^-7 M
# unit: % | format: bare number

COc1ccc(CN2CCN(CC(O)COc3cc(C)c(O)c(C)c3C)CC2)c(OC)c1OC (stereo not shown)
114
COc1ccc(CN2CCN(CC(O)CSc3cc(C)c(O)c(C)c3C)CC2)c(OC)c1OC (stereo not shown)
100
COc1ccc(CN2CCN(CCCc3cc(C(C)(C)C)c(O)c(C(C)(C)C)c3)CC2)c(OC)c1OC
103
COc1ccc(CN2CCN(CC(O)CSc3cc(C(C)(C)C)c(O)c(C(C)(C)C)c3)CC2)c(OC)c1OC (stereo not shown)
99.5
COc1ccc(CN2CCN(CCCCCOc3cc(C)c(O)c(C)c3C)CC2)c(OC)c1OC
88.8

What activity at 0.1 µM value was documented for this molecule, COc1ccc(CN2CCN(CCCOc3cc(C(C)(C)C)c(O)c(C(C)(C)C)c3)CC2)c(OC)c1OC ? 72.6

Would you kindly repeat that for COc1ccc(CN2CCN(CCCCCOc3cc(C(C)(C)C)c(O)c(C(C)(C)C)c3)CC2)c(OC)c1OC ? 91.4

Would you kindly repeat that for COc1ccc(CN2CCN(CCCSc3cc(C(C)(C)C)c(O)c(C(C)(C)C)c3)CC2)c(OC)c1OC ? 85.9

Would you kindly repeat that for COc1ccc(CN2CCN(CCCOc3cc(C)c(O)c(C)c3C)CC2)c(OC)c1OC ? 70.4

Would you kindly repeat that for COc1ccc(CN2CCN(CCCCCSc3cc(C(C)(C)C)c(O)c(C(C)(C)C)c3)CC2)c(OC)c1OC ? 53

* * *

Tested on: rat aorta
method description: Study on isolated vessels: vascular relaxing effect on a rat aorta contracted by potassium (80 mM)
Set-up: species or system Wistar rat
condition label: rat aorta rings without endothelium contracted by potassium (80 mM)
Measured IC50, listed per entry for reference.
# unit: µM | format: bare number

COc1ccc(CN2CCN(CCCCCOc3cc(C)c(O)c(C)c3C)CC2)c(OC)c1OC
2
COc1ccc(CN2CCN(CC(O)CSc3cc(C(C)(C)C)c(O)c(C(C)(C)C)c3)CC2)c(OC)c1OC (stereo not shown)
2.7

What IC50 value was documented for this molecule, COc1ccc(CN2CCN(CC(O)CSc3cc(C)c(O)c(C)c3C)CC2)c(OC)c1OC (stereo not shown) ? 4.3

Would you kindly repeat that for COc1ccc(CN2CCN(CCCOc3cc(C)c(O)c(C)c3C)CC2)c(OC)c1OC ? 5

* * *

System: cardiac cells
method description: Oxidative necrosis of cardiac cells induced by hypoxanthine/xanthine-oxidase (XO + HX)
Format: cell-based, rat (newborn)
condition label: Rattus norvegicus, 4 h; 10^-6 M; XO + HX; control XO + HX = 100.0; read-out: necrosis index of cardiac cells, XO + HX, compound 10^-6 M
Parameter threshold = 20%. Response is MET when activity at 1 µM meets or exceeds it, else NOT MET.

COc1ccc(CN2CCN(CC(O)CSc3cc(C)c(O)c(C)c3C)CC2)c(OC)c1OC (stereo not shown)
MET
COc1ccc(CN2CCN(CC(O)CSc3cc(C(C)(C)C)c(O)c(C(C)(C)C)c3)CC2)c(OC)c1OC (stereo not shown)
NOT MET

Can COc1ccc(CN2CCN(CCCCCOc3cc(C)c(O)c(C)c3C)CC2)c(OC)c1OC be said to have activity at 1 µM at or above 20%? NOT MET

Would you kindly repeat that for COc1ccc(CN2CCN(CCCSc3cc(C(C)(C)C)c(O)c(C(C)(C)C)c3)CC2)c(OC)c1OC ? NOT MET

Would you kindly repeat that for COc1ccc(CN2CCN(CCCOc3cc(C)c(O)c(C)c3C)CC2)c(OC)c1OC ? MET

Would you kindly repeat that for COc1ccc(CN2CCN(CC(O)COc3cc(C)c(O)c(C)c3C)CC2)c(OC)c1OC (stereo not shown) ? MET

Would you kindly repeat that for COc1ccc(CN2CCN(CCCCCSc3cc(C(C)(C)C)c(O)c(C(C)(C)C)c3)CC2)c(OC)c1OC ? NOT MET
